# Method Summary: NCI Yeast Anticancer Drug Screen. Data for the bub3 strain (AID 167)
# Condition Details: S. cerevisiae bub3 mutant strain, at 50.0 µM, hits give high values
# Method: Growth inhibition of yeast strains with defined genetic alterations is measured as a screen for potential anti-cancer activity. Selected strains with alterations in DNA damage repair or cell cycle control were exposed to compounds and growth inhibition was measured relative to vehicle treated controls. The strain used in this assay is bub3
About 79,000 compounds went through this panel and 15% of them were active in at least one assay; those are over-represented in the sample as a whole. Where a SMILES comes first, the peptide text is derived from it. The star is where a group is joined. Boc = CC(C)(C)OC(=O)*
Rule: growth inhibition of 10% or more gives T; anything lower gives F.

>>> class("O=S1(=O)C(c2ccccc2)C(N2CCCCC2)C1C1CC2c3ccccc3C1c1ccccc12 (stereo not drawn)")
"T"
>>> class("COc1ccc2ccccc2c1C1OC(=O)c2ccccc21 (stereo not drawn)")
"T"
>>> class("CCOC(=O)/C(C#N)=C(\\CC)c1ccccc1")
"F"
>>> class("CCNC(=O)Oc1cccc(NC(=O)CC)c1")
"F"
>>> class("C1CCc2nc3c(nc2C1)CCCC3")
"F"
>>> class("Cn1nc(-c2ccccc2)c(C(=O)/C=C/c2ccc(F)cc2)c(N2CCCCC2)c1=O")
"F"
>>> class("CCC(CO)c1ccccc1 (stereo not drawn)")
"F"
>>> class("Oc1ccc2ccccc2c1")
"F"
>>> class("COc1ccc2nc3cc(Cl)ccc3c(NCCCNCCCNc3c4ccc(Cl)cc4nc4ccc(OC)cc34)c2c1")
"F"
>>> class("CCC(=O)CCc1ccc2ccccc2c1")
"T"
>>> class("C/C=C/c1cc(C=O)cc(OC)c1O")
"F"
>>> class("CN(C)c1nc(=O)c2ccccc2o1")
"F"
>>> class("Cc1ccc(NC(=S)Nc2ccccc2F)cc1")
"T"
>>> class("CCCCCCCCCCCCCCCCCC(=O)OCC1CO1 (stereo not drawn)")
"T"
>>> class("COc1c(NC(=O)CC(C)=O)cccc1NC(=O)CC(C)=O")
"F"
>>> class("S=C(N/N=C/c1cccc2ccccc12)Nc1c(Cl)cccc1Cl")
"T"
>>> class("O=C(O)c1cccc2c1-c1ccc(NC(=O)C(Cl)Cl)cc1C2=O")
"T"
>>> class("CC(=O)COC(C)=O")
"F"
>>> class("ClC1=C(Cl)C2(Cl)C3C(CC4C3C3(Cl)C(Cl)=C(Cl)C4(Cl)C3(Cl)Cl)C1(Cl)C2(Cl)Cl (stereo not drawn)")
"F"
>>> class("COC(=O)C(Cc1c[nH]c2ccccc12)NC(=O)C(Cc1c[nH]c2ccccc12)NC(=O)C(Cc1c[nH]c2ccccc12)NC(=O)OC(C)(C)C (stereo not drawn) (Boc-Trp-Trp-Trp-OMe; configuration not given here)")
"F"
>>> class("CC(=O)OC1CC[C@@]2(C)C(C1)CC(OC(C)=O)[C@@H]1C2CC(OC(C)=O)[C@]2(C)C(C(C)CC=C(c3ccc(Cl)cc3)c3ccc(Cl)cc3)CCC12 (stereo partly drawn)")
"T"
>>> class("C=CCOC(=O)/C=C/C")
"F"
>>> class("CCCCC(=O)CCC(=O)O")
"F"

---

# Method Summary: NCI Yeast Anticancer Drug Screen. Data for the rad50 strain (AID 155);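 note: 0% = growth of vehicle-only cultures of the same strain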
# Condition Details: S. cerevisiae rad50 strain growth inhibition; at 50.0 µM; hits give high values
The panel holds about 79,000 compounds, 15% with a hit somewhere; the sample as a whole holds those more often.
Reported growth inhibition by item:
Value Kind: growth inhibition (%)

>>> observed("O=C1c2c(-c3ccccc3)ccc(-c3ccccc3)c2C(=O)c2c(-c3ccccc3)ccc(-c3ccccc3)c21")
-4.4
>>> observed("CN(Cc1nc2c(N)nc(N)nc2nc1N)c1ccc(C(=O)NC(CCC(=O)O)C(=O)O)cc1 (stereo not drawn)")
7.65
>>> observed("CN(C)CCCn1c(=O)nc2n(-c3ccccc3)c3ccccc3nc-2c1=O")
9.3
>>> observed("O=C(O)/C=C(/Oc1ccccc1)c1ccccc1")
-12.3
>>> observed("CCCCCCCCCCCCCCCCC(NC(C)=O)(C(=O)OCC)C(=O)OCC")
23.9
>>> observed("Cc1cc(N(CCC#N)CCC#N)ccc1/C=C1/N=C(c2ccccc2)N(N)C1=O")
-2.55
>>> observed("c1ccc(-c2cccc(-c3ccccc3)n2)cc1")
20.5
>>> observed("CC1(C)CCC2(C(=O)OC3OC(CO)C(O)C(O)C3O)CCC3(CO)C(=CCC4C5(C)CC(O)C(O)C(C)(C(=O)OC6OC(CO)C(O)C(O)C6O)C5CCC43C)C2C1 (stereo not drawn)")
2.3
>>> observed("CCCC(C)(C)COC(=O)Cc1ccccc1")
40.3
>>> observed("COc1ccc(C2=Nc3ccccc3NC(=O)C2)cc1")
-10.2
>>> observed("CN(c1ccccc1)c1cc2c(cc1[N+](=O)[O-])no[n+]2[O-]")
97.8
>>> observed("COc1cc(COC(=O)Nc2ccccc2F)cc(OC)c1OC")
-4.9
>>> observed("S=c1[nH]c2ccccc2nc1NCc1ccccc1")
-1.55
>>> observed("Cc1cccc(C)c1C1=NCCN1")
3.55
>>> observed("Cc1nc(C)c(N2CCN(C(=O)O)CC2)c(=O)[nH]1")
-23.6
>>> observed("CC1CC(C)OC2(CCCC2)O1 (stereo not drawn)")
8.45
>>> observed("Cc1c(C2CC(=O)N(c3ccccc3)C2=O)c2ccccc2n1C (stereo not drawn)")
-6.25
>>> observed("CCCNC(=O)N(CCC)S(=O)(=O)c1ccc(Cl)cc1")
-6.85
>>> observed("C[N+](C)(C)C(Cc1c[nH]c(=S)[nH]1)C(=O)O (stereo not drawn)")
-14.9
>>> observed("CC1=C(C(=O)Nc2ccccc2C)C(c2ccccc2C)C(C(=O)Nc2ccccc2C)=C(C)N1")
67.2
>>> observed("CC(CCOS(C)(=O)=O)OS(C)(=O)=O (stereo not drawn)")
8.25
>>> observed("CC(C)(C)N1CC(C(O)c2ccccc2)C1c1ccccc1 (stereo not drawn)")
-8.05
>>> observed("Oc1cccc(C=NCCN=Cc2cccc(O)c2O)c1O.[Fe]")
-9.35

---

# Method Summary: NCI Yeast Anticancer Drug Screen. Data for the mlh1 rad18 strain (AID 175)
# Condition Details: S. cerevisiae mlh1 rad18 strain growth inhibition; at 50.0 µM; hits give high values
# Procedure: Growth inhibition of yeast strains with defined genetic alterations is measured as a screen for potential anti-cancer activity. Selected strains with alterations in DNA damage repair or cell cycle control were exposed to compounds and growth inhibition was measured relative to vehicle treated controls. The strain used in this assay is mlh1 rad18
This is part of a sample that, as a whole, favours compounds with a hit. Of some 79,000 tested, about 15% had one in any assay. Where a SMILES comes first, the peptide text is derived from it. The star is where a group is joined. For = O=C*
Value Kind: growth inhibition (%)

>>> observed("COC1CCCCC(=NNC(N)=O)CCCC1 (stereo not given)")
-1.15
>>> observed("O=C(N/N=C\\c1ccc([N+](=O)[O-])cc1)Nc1cccc2ccccc12")
-41.8
>>> observed("O=C1CC(c2ccccc2)Oc2ccccc21 (stereo not given)")
-24.1
>>> observed("CCCCOc1ccc(C=Nc2ccc(C)cc2)cc1")
-20.7
>>> observed("COc1ccc(NC(=O)Oc2ccc(C#N)cc2)cc1")
-1.55
>>> observed("O=C1Nc2ccccc2C2Cc3c([nH]c4ccccc34)CC12 (stereo not given)")
20.9
>>> observed("O=C(O)C(=O)O.[NH-]CC(O)CN(CC(O)CO)c1ccccc1.[Pt+2] (stereo not given)")
11.1
>>> observed("O=Cc1c2cnc(c1O)CSCCCCSC2")
-1.8
>>> observed("CSCCC(NC(=O)C(Cc1ccccc1)NC=O)C(=O)O (stereo not drawn) (For-Phe-Met-OH; configuration not given here)")
-11.5
>>> observed("CC1CCP(=O)(c2ccccc2)CC1 (stereo not given)")
-35.2
>>> observed("CCCc1nc(CCC)nc(CCC)n1")
-14.7
>>> observed("CC(=O)c1cc([N+](=O)[O-])c[nH]1")
0.5
>>> observed("O=C(COc1c(Cl)cc(Cl)c2ccccc12)NC1c2ccccc2Oc2ccccc21")
14.4
>>> observed("[O-]/[N+]1=[N+](\\[O-])c2ccccc2CCCc2ccccc21")
-7.1
>>> observed("CCCSc1nc2c(=O)n(C)c(=O)[nH]c2n1C")
-3.55
>>> observed("COc1cccc(/C=C2/C(=O)N(c3ccc([N+](=O)[O-])cc3)N=C2C)c1")
43.9
>>> observed("N#COc1ccc(-c2ccccc2)cc1")
0.8
>>> observed("CCC(C)C1CCCCC1OC(=O)CCl (stereo not given)")
-18.6
>>> observed("CC(C)NC(=O)c1ccc(CBr)cc1")
14.3
>>> observed("COc1ccc(/C(=N\\NC(=O)C(=O)NN)C(c2ccc(OC)cc2)C2(O)C(=O)Nc3ccccc32)cc1 (stereo not given)")
-18.1
>>> observed("CCOC(=O)c1c2ccc(/C=C/c3ccccc3)ccc-2c(C(=O)OCC)c1N")
-22.6
>>> observed("NCCNC(=O)c1ccccc1")
4.65
>>> observed("NC(=O)C1=Cc2cccn2-c2ccccc2S1")
0.8
>>> observed("CCOC(=O)N[n+]1ccccc1")
8.1
>>> observed("CCC1(COC(NC(=O)c2ccccc2)(C(F)(F)F)C(F)(F)F)COC1")
7.05
